Recorded values, source patent US20170152263A1.

Recorded inhibition at 0.1 µM, one value per entry.
# tgt: recombinant IRAK-4 kinase (Homo sapiens, UniProt Q9NWZ3)
# Construct: purchased Millipore, USA
# Sequence (Q9NWZ3 1-460): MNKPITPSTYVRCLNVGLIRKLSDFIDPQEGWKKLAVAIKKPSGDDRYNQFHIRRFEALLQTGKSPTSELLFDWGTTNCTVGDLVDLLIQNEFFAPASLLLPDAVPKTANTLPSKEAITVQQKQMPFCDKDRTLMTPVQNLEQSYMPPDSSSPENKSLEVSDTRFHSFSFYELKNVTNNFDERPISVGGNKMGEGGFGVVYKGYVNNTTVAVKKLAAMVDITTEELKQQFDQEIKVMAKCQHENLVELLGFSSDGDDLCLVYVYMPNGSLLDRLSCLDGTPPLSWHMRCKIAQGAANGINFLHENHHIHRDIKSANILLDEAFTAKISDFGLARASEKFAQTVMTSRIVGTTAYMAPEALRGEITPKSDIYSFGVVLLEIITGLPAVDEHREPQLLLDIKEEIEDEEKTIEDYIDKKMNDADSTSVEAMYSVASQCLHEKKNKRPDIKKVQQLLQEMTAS
# measurement-protocol: IRAK-4 biochemical assay (TR-FRET)
# condition: IRAK-4 enzyme, compound at 0.1 μM, 20 μM ATP
Could you give me the number in %? Just the number is fine.

[
  {
    "compound": "Cn1cc2cc(N3CCCCC3)c(NC(=O)c3cccc(N4CC[C@H](O)C4)n3)cc2n1",
    "readout-unit": "%",
    "inhibition at 0.1 µM": 90
  },
  {
    "compound": "Cn1ncc2cc(N3CC[C@H](O)C3)c(NC(=O)c3coc(-c4cccnc4N)n3)cc21",
    "readout-unit": "%",
    "inhibition at 0.1 µM": 81
  }
]

State its inhibition at 0.1 µM on recombinant IRAK-4 kinase (Homo sapiens, UniProt Q9NWZ3): Cc1cc(-c2ncc(C(=O)Nc3cc4c(cnn4C)cc3N3CC[C@H](O)C3)o2)ccn1
49

What value of inhibition at 0.1 µM on recombinant IRAK-4 kinase (Homo sapiens, UniProt Q9NWZ3) does Cn1cc2cc(N3CCCCC3)c(NC(=O)c3coc(N4CC[C@H](N)C4)n3)cc2n1 have?
95
